Origin of measurements: patent US9079913B2

assay_summary: In vitro microsomal stability, rat
Assay type: in vitro ADME
stated_conditions: Table 17, 30 min
quantity_measured: % of compound remaining when incubated in rat liver microsomes
Hi, when you answer, please include the unit after the number. Thanks!

Solved entries:
CN1CCN(CCNC(=O)[C@@H]2N[C@H](CC(C)(C)C)[C@]3(C(=O)Nc4cc(Cl)c(F)cc43)[C@H]2c2cccc(Cl)c2)CC1 :: 23%
CC(C)(C)C[C@H]1N[C@@H](C(=O)NCCCN2CCCC2)[C@H](c2cccc(Cl)c2F)[C@@]12C(=O)Nc1cc(Cl)c(F)cc12 :: 55.8%
CN1CCN(CCCNC(=O)[C@@H]2N[C@H](CC(C)(C)C)[C@]3(C(=O)Nc4cc(Cl)c(F)cc43)[C@H]2c2cccc(Cl)c2)CC1 :: 31.1%
CC(C)(C)C[C@H]1N[C@@H](C(=O)NCCN2CCNCC2)[C@H](c2cccc(Cl)c2)[C@@]12C(=O)Nc1cc(Cl)c(F)cc12 :: 43.7%
CC(C)(C)C[C@H]1N[C@@H](C(=O)NCCCN2CCN(C3CC3)CC2)[C@H](c2cccc(Cl)c2F)[C@@]12C(=O)Nc1cc(Cl)ccc12 [MI-519-47] :: 34.3%

Shifting focus to the compound that follows.
Ask: // % of compound remaining when incubated in rat liver microsomes lookup, key: CN1CCN(CCCNC(=O)[C@@H]2N[C@H](CC(C)(C)C)[C@]3(C(=O)Nc4cc(Cl)ccc43)[C@H]2c2cccc(Cl)c2F)CC1
Result: 38.3%

====

assay_summary: In vitro microsomal stability, rat
Assay type: in vitro ADME
stated_conditions: 45 min
quantity_measured: % of compound remaining when incubated in rat liver microsomes with NADPH (%)
Numbers only, in %.

Solved entries:
CC(C)(C)C[C@H]1N[C@@H](C(=O)N[C@H]2C[C@@H](O)C2)[C@H](c2cccc(Cl)c2F)[C@@]12C(=O)Nc1cc(Cl)ccc12 (stereo in doubt) :: 27.72
CC(C)(C)C[C@H]1N[C@@H](C(=O)N[C@H]2C[C@@](C)(O)C2)[C@H](c2cccc(Cl)c2F)[C@@]12C(=O)Nc1cc(Cl)ccc12 :: 41.19

Take each entry in turn and give its % of compound remaining when incubated in rat liver microsomes with NADPH.
1. CC(O)C(O)CCNC(=O)[C@@H]1N[C@H](CC(C)(C)C)[C@]2(C(=O)Nc3cc(Cl)c(F)cc32)[C@H]1c1cccc(Cl)c1 (stereo partly shown)
2. CC(C)(C)C[C@H]1N[C@@H](C(=O)NC2CC(O)C2)[C@H](c2cccc(Cl)c2F)[C@@]12C(=O)Nc1cc(Cl)ccc12 (stereo partly shown)

Result:
1: 34.31; 2: 35.16

====

experimental_system: recombinant human His-tagged MDM2 protein (residues 1-118) (Homo sapiens (Human))
Sequence (Q00987 1-118): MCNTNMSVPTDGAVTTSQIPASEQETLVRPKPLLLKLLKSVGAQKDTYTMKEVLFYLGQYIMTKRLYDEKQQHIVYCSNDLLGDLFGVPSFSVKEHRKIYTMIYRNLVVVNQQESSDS
assay_summary: Fluorescence-polarization MDM2 binding assay;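 also: fluorescence polarization read after three hours of incubation in potassium phosphate buffer containing bovine gamma globulin and Triton X-100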
stated_conditions: Table 19C; read-out: Bidning affinities to MDM2 as determined using FP assay IC50
pIC50: −log10 of the molar value.
Would you mind telling me the reported pIC50 of each entry?

Solved entries:
CC(C)(C)C[C@H]1N[C@@H](C(=O)NCC[C@H](O)CN)[C@H](c2cccc(Cl)c2)[C@@]12C(=O)Nc1cc(Cl)c(F)cc12 :: > 6.00
CN(C)C[C@@H](O)CCNC(=O)[C@@H]1N[C@H](CC(C)(C)C)[C@]2(C(=O)Nc3cc(Cl)c(F)cc32)[C@H]1c1ccc(F)c(Cl)c1 :: > 5.30
CC(C)(C)C[C@H]1N[C@@H](C(=O)NC[C@H](O)[C@H](O)CO)[C@H](Cc2cccc(Cl)c2)[C@@]12C(=O)Nc1cc(Cl)c(F)cc12 :: > 6.00
CC(C)(C)C[C@H]1N[C@@H](C(=O)NCC[C@H](O)CO)[C@H](c2cncc(Cl)c2)[C@@]12C(=O)Nc1cc(Cl)c(F)cc12 :: > 5.00
O=C(NCC[C@H](O)CO)[C@@H]1N[C@H](CC2(CCO)CCCC2)[C@]2(C(=O)Nc3cc(Cl)c(F)cc32)[C@H]1c1cccc(Cl)c1 :: > 6.00

Take each entry in turn and give its pIC50.
1. CC(C)(CCO)C[C@H]1N[C@@H](C(=O)NCC[C@H](O)CO)[C@H](c2cccc(Cl)c2)[C@@]12C(=O)Nc1cc(Cl)c(F)cc12
2. CCOP(=O)(OCC)OC[C@@H](O)CCNC(=O)[C@@H]1N[C@H](CC(C)(C)C)[C@]2(C(=O)Nc3cc(Cl)c(F)cc32)[C@H]1c1ccc(F)c(Cl)c1
3. O=C(NCC[C@H](O)CO)[C@H]1[C@H](c2cccc(Cl)c2)[C@@]2(C(=O)Nc3cc(Cl)c(F)cc32)[C@H]2CC3(CCCC3)CCN12
4. CC(C)(C)C[C@H]1N[C@@H](C(=O)NCC[C@H](O)CO)[C@H](Cc2ccccc2)[C@@]12C(=O)Nc1cc(Cl)c(F)cc12

Result:
> 5.30
> 5.30
< 5.52
< 5.00
